# Measurement Target: T1, cynomolgus monkey (cyno) TSLP (cynomolgus monkey, UniProt A0A7N9CAT7 29-159)
# T1 construct: also called cTSLP; cynomolgus TSLP
# T1 sequence (A0A7N9CAT7 entry or part of it): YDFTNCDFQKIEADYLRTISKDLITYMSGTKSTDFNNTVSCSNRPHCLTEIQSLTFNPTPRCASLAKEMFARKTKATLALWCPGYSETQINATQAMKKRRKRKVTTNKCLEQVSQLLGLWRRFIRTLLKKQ
# Assay Comment: SPR
Reported Endpoint: pKd
By convention, pKd is the negative base-10 log of a molar concentration.

The cases that follow already have their pKd on record.
1. BDG38.090 (antibody, V domains shown, IgG1) VH: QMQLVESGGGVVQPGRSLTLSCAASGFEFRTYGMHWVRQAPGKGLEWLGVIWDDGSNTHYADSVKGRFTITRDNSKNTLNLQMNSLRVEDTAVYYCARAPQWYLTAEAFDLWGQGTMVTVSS VL: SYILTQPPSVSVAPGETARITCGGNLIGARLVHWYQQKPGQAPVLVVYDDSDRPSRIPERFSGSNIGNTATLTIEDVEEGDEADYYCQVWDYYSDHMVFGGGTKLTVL ... 11.05
2. BDG38.140 (antibody, V domains shown, IgG1) VH: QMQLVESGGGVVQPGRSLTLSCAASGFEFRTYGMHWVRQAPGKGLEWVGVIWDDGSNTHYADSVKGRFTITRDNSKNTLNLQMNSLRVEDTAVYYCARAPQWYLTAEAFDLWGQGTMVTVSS VL: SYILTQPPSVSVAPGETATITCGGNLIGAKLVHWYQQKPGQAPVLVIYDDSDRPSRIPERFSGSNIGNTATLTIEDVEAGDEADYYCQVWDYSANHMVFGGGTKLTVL ... 12.21
3. BDG38.096 (antibody, V domains shown, IgG1) VH: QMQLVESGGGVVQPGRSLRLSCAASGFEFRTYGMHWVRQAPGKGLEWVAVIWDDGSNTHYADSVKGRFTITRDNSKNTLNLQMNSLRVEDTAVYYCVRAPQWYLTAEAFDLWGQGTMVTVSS VL: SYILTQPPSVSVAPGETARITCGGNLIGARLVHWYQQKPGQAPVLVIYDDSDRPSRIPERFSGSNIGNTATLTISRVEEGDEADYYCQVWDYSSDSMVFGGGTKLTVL ... 10.74
4. BDG38.075 (antibody, V domains shown, IgG1) VH: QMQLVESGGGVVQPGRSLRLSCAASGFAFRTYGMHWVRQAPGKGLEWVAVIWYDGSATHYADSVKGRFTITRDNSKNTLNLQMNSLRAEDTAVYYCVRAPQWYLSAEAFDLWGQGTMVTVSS VL: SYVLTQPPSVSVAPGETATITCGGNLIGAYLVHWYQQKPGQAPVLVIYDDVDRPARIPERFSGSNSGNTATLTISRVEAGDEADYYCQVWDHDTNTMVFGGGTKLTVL ... 11.55
5. BDG38.116 (antibody, V domains shown, IgG1) VH: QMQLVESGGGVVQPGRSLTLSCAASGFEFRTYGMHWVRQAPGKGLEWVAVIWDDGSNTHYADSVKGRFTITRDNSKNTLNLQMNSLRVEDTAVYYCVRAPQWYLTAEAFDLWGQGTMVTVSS VL: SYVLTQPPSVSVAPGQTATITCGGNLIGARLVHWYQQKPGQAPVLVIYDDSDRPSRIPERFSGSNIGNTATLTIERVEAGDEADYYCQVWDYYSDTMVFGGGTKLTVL ... 10.57

Challenge: Which pKd reading was recorded for the binder BDG38.132 (antibody, V domains shown, IgG1) VH: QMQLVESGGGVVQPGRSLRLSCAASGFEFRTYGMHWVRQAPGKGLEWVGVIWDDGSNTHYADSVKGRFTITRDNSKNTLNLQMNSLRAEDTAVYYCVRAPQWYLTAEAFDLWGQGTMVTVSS VL: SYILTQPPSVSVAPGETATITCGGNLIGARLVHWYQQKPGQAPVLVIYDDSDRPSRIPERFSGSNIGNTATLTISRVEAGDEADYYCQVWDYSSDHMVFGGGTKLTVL ?
Response given: 12.49

Challenge: Moving on to the next binder: BDG38.139 (antibody, V domains shown, IgG1) VH: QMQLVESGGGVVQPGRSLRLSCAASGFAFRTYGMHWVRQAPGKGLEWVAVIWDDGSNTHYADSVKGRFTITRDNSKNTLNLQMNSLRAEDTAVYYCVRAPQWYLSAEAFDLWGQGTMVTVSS VL: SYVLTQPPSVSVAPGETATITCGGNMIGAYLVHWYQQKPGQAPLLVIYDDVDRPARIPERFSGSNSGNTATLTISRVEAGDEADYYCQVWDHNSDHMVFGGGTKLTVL
Response given: 11.62

Challenge: For BDG38.076 (antibody, V domains shown, IgG1) VH: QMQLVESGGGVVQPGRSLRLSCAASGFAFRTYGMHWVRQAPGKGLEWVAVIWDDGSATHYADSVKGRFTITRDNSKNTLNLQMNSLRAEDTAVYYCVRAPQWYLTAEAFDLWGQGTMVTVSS VL: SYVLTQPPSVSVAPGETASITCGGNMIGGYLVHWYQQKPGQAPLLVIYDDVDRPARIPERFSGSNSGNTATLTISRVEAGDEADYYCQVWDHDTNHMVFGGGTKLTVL then?
Response given: 14.29

Challenge: What do you have for BDG38.092 (antibody, V domains shown, IgG1) VH: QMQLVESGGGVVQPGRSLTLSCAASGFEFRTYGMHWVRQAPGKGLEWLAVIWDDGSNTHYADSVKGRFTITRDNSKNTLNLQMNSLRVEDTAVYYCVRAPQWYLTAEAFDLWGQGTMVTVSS VL: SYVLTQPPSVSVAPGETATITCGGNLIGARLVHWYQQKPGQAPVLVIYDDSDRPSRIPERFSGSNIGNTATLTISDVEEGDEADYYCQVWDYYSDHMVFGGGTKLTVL ?
Response given: 11.35

Challenge: Then what about the binder BDG38.117 (antibody, V domains shown, IgG1) VH: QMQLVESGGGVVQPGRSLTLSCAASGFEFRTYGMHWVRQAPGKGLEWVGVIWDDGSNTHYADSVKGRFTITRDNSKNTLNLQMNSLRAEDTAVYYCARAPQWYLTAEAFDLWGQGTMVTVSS VL: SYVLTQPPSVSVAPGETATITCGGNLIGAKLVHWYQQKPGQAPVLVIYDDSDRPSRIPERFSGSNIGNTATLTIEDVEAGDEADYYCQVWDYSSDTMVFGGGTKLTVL ?
Response given: 11.05
